# MEASUREMENT NOTES: Activity for inhibiting fighting behavior of mouse isolated singly for a long period of time
# Type: in vivo, mouse (male, ddy-strain)
# COND: positive if fighting no longer than 5 seconds in a minute, range in parentheses, read-out: ED50 (inhibition of fighting behavior)
Rule: ED50 below 1 mg/kg gives Y, anything at or above gives N.

Input: In plain terms, does O=C1CCc2ccc(OCCCN3CCN(c4cccc(Cl)c4)CC3)cc2N1 [Compound 39] come in under 1 mg/kg for ED50?
Output: Y

###

# TARGET OF ASSAY: enucleated ileum of a guinea pig (Cavia porcellus, UniProt P31389)
# Construct: the tissue of ileum is cut to a length of 2.5 to 3.0 cm and suspended in an organ bath; from tissue; host or cells: isolated ileum from the ileocecal region of male guinea pig
# Sequence (P31389 whole entry): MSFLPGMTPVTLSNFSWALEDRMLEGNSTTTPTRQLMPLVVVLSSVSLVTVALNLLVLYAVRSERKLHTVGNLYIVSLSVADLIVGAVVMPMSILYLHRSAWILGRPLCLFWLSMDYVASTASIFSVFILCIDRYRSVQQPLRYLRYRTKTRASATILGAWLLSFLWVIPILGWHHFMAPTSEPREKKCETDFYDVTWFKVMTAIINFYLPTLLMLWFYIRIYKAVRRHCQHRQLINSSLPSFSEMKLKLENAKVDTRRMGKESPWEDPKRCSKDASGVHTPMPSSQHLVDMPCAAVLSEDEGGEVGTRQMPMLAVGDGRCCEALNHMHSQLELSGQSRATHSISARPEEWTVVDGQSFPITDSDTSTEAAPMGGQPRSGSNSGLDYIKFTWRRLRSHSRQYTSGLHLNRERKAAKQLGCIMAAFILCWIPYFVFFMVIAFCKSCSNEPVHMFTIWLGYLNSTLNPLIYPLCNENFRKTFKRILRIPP
# MEASUREMENT NOTES: Antihistamine activity test in vitro (enucleated guinea pig ileum, histamine retraction, pA2 by Van Rossam method)
# COND: 10^-6 g/ml test compound, 5 minutes before histamine, 36° C.
Counter-ions that a name gives are not always drawn.
ENDPOINT: log10 of Kb (log10 of the value in nM)
// do not treat as linear: log10 of Kb, unit nM

| MOLECULE | log10 of Kb |
| --- | --- |
| O=C1CCc2ccc(OCCCN3CCN(c4ccccc4)CC3)cc2N1 [Compound 6, dihydrochloride] | -0.34 |
| COc1ccccc1N1CCN(CCCOc2ccc3ccc(=O)[nH]c3c2)CC1 [Compound 22, dihydrochloride] | 1.07 |
| O=C1CCc2c(cccc2OCCCN2CCN(c3ccccc3)CC2)N1 [Compound 5, dihydrochloride] | 0.13 |

Input: I would be grateful if you could share the reported log10 of Kb for Cc1ccc(N2CCN(CCCCOc3cccc4c3CCC(=O)N4)CC2)cc1 [Compound 10] .
Output: 0.10

Input: Please give the result for O=C1CCc2c(cccc2OCCCN2CCN(C3CCCCC3)CC2)N1 [Compound 30] too.
Output: 1.65

Input: Please give the result for O=C1CCc2c(OCC(O)CN3CCN(c4ccccc4)CC3)cccc2N1Cc1ccccc1 (centres unmarked) [Compound 8, monohydrochloride] too.
Output: -1.80

Input: Please give the result for O=C1CCc2c(cccc2OCCCN2CCCN(c3ccccc3)CC2)N1 [Compound 31] too.
Output: -0.58

Input: Please give the result for O=c1cc(OCCCN2CCN(c3ccccc3)CC2)c2ccccc2[nH]1 [Compound 26] too.
Output: 0.34
